- assay.protocol: loose bulk density measurement of nicotinamide mononucleotide crystals (sieve, weigh, graduated cylinder)
- Type: physicochemical
- test.conditions: water content of semi-solid 15%; pH 3.5, ethanol, cooling 10° C./h to 10° C.

{"columns": ["compound", "Bulk density, g/mL"],
 "data": [
  ["NC(=O)c1ccc[n+]([C@@H]2O[C@H](COP(=O)([O-])O)[C@@H](O)[C@H]2O)c1 [Example 1, nicotinamide mononucleotide]", 0.77]
]}

* * *

- assay.protocol: loose bulk density measurement of nicotinamide mononucleotide crystals (sieve, weigh, graduated cylinder)
- Format: physicochemical
- test.conditions: pH value of aqueous solution of NMN 5.5; water content 10%, cooling 10° C./h to 10° C.

{"columns": ["molecule", "Bulk density"],
 "data": [
  ["NC(=O)c1ccc[n+]([C@@H]2O[C@H](COP(=O)([O-])O)[C@@H](O)[C@H]2O)c1 [Example 3, nicotinamide mononucleotide]", "1.09 g/mL"]
]}

* * *

- assay.protocol: loose bulk density measurement of nicotinamide mononucleotide crystals (sieve, weigh, graduated cylinder)
- Type: physicochemical
- test.conditions: water content of semi-solid 35%; pH 3.5, ethanol, cooling 10° C./h to 10° C.
property: Bulk density (g/mL)

{"columns": ["compound", "reported.measurement"],
 "data": [
  ["NC(=O)c1ccc[n+]([C@@H]2O[C@H](COP(=O)([O-])O)[C@@H](O)[C@H]2O)c1 [Example 1, nicotinamide mononucleotide]", 0.44]
]}

* * *

- assay.protocol: loose bulk density measurement of nicotinamide mononucleotide crystals (sieve, weigh, graduated cylinder)
- Format: physicochemical
- test.conditions: cooling rate 10, crystallization end temperature 18; water content 10%, pH 3.5

{"columns": ["compound", "Bulk density, g/mL"],
 "data": [
  ["NC(=O)c1ccc[n+]([C@@H]2O[C@H](COP(=O)([O-])O)[C@@H](O)[C@H]2O)c1 [Example 2, nicotinamide mononucleotide]", 0.84]
]}

* * *

- assay.protocol: loose bulk density measurement of nicotinamide mononucleotide crystals (sieve, weigh, graduated cylinder)
- Assay type: physicochemical
- test.conditions: water content of semi-solid 20%; pH 3.5, ethanol, cooling 10° C./h to 10° C.
property: Bulk density (g/mL)

{"columns": ["compound", "property", "quantity.unit", "reported.measurement"],
 "data": [
  ["NC(=O)c1ccc[n+]([C@@H]2O[C@H](COP(=O)([O-])O)[C@@H](O)[C@H]2O)c1 [Example 1, nicotinamide mononucleotide]", "Bulk density", "g/mL", 0.67]
]}

* * *

- assay.protocol: loose bulk density measurement of nicotinamide mononucleotide crystals (sieve, weigh, graduated cylinder)
- Assay type: physicochemical
- test.conditions: cooling rate 3, crystallization end temperature 10; water content 10%, pH 3.5

{"columns": ["molecule", "Bulk density, g/mL"],
 "data": [
  ["NC(=O)c1ccc[n+]([C@@H]2O[C@H](COP(=O)([O-])O)[C@@H](O)[C@H]2O)c1 [Example 2, nicotinamide mononucleotide]", 0.93]
]}

* * *

- assay.protocol: loose bulk density measurement of nicotinamide mononucleotide crystals (sieve, weigh, graduated cylinder)
- Type: physicochemical
- test.conditions: water content of semi-solid 25%; pH 3.5, ethanol, cooling 10° C./h to 10° C.

{"columns": ["compound", "Bulk density"],
 "data": [
  ["NC(=O)c1ccc[n+]([C@@H]2O[C@H](COP(=O)([O-])O)[C@@H](O)[C@H]2O)c1 [Example 1, nicotinamide mononucleotide]", "0.56 g/mL"]
]}

* * *

- assay.protocol: loose bulk density measurement of nicotinamide mononucleotide crystals (sieve, weigh, graduated cylinder)
- Type: physicochemical
- test.conditions: water content of semi-solid 50%; pH 3.5, ethanol, cooling 10° C./h to 10° C.
property: Bulk density (g/mL)

{"columns": ["molecule", "reported.measurement"],
 "data": [
  ["NC(=O)c1ccc[n+]([C@@H]2O[C@H](COP(=O)([O-])O)[C@@H](O)[C@H]2O)c1 [Example 1, nicotinamide mononucleotide]", 0.33]
]}

* * *

- assay.protocol: loose bulk density measurement of nicotinamide mononucleotide crystals (sieve, weigh, graduated cylinder)
- Type: physicochemical
- test.conditions: pH value of aqueous solution of NMN 6.0; water content 10%, cooling 10° C./h to 10° C.

{"columns": ["compound", "Bulk density / g/mL"],
 "data": [
  ["NC(=O)c1ccc[n+]([C@@H]2O[C@H](COP(=O)([O-])O)[C@@H](O)[C@H]2O)c1 [Example 3, nicotinamide mononucleotide]", 1.07]
]}

* * *

- assay.protocol: loose bulk density measurement of nicotinamide mononucleotide crystals (sieve, weigh, graduated cylinder)
- Assay type: physicochemical
- test.conditions: pH value of aqueous solution of NMN 7.0; water content 10%, cooling 10° C./h to 10° C.

{"columns": ["compound", "quantity.unit", "Bulk density"],
 "data": [
  ["NC(=O)c1ccc[n+]([C@@H]2O[C@H](COP(=O)([O-])O)[C@@H](O)[C@H]2O)c1 [Example 3, nicotinamide mononucleotide]", "g/mL", 0.81]
]}

* * *

- assay.protocol: loose bulk density measurement of nicotinamide mononucleotide crystals (sieve, weigh, graduated cylinder)
- Format: physicochemical
- test.conditions: cooling rate 5, crystallization end temperature 18; water content 10%, pH 3.5

{"columns": ["molecule", "quantity.unit", "Bulk density"],
 "data": [
  ["NC(=O)c1ccc[n+]([C@@H]2O[C@H](COP(=O)([O-])O)[C@@H](O)[C@H]2O)c1 [Example 2, nicotinamide mononucleotide]", "g/mL", 0.88]
]}

* * *

- assay.protocol: loose bulk density measurement of nicotinamide mononucleotide crystals (sieve, weigh, graduated cylinder)
- Assay type: physicochemical
- test.conditions: cooling rate 15, crystallization end temperature 25; water content 10%, pH 3.5

{"columns": ["compound", "Bulk density"],
 "data": [
  ["NC(=O)c1ccc[n+]([C@@H]2O[C@H](COP(=O)([O-])O)[C@@H](O)[C@H]2O)c1 [Example 2, nicotinamide mononucleotide]", "0.34 g/mL"]
]}

* * *

- assay.protocol: loose bulk density measurement of nicotinamide mononucleotide crystals (sieve, weigh, graduated cylinder)
- Format: physicochemical
- test.conditions: water content of semi-solid 10%; pH 3.5, ethanol, cooling 10° C./h to 10° C.

{"columns": ["molecule", "Bulk density"],
 "data": [
  ["NC(=O)c1ccc[n+]([C@@H]2O[C@H](COP(=O)([O-])O)[C@@H](O)[C@H]2O)c1 [Example 1, nicotinamide mononucleotide]", "0.89 g/mL"]
]}

* * *

- assay.protocol: loose bulk density measurement of nicotinamide mononucleotide crystals (sieve, weigh, graduated cylinder)
- Type: physicochemical
- test.conditions: pH value of aqueous solution of NMN 3.5; water content 10%, cooling 10° C./h to 10° C.

{"columns": ["compound", "quantity.unit", "Bulk density"],
 "data": [
  ["NC(=O)c1ccc[n+]([C@@H]2O[C@H](COP(=O)([O-])O)[C@@H](O)[C@H]2O)c1 [Example 3, nicotinamide mononucleotide]", "g/mL", 0.89]
]}

* * *

- assay.protocol: loose bulk density measurement of nicotinamide mononucleotide crystals (sieve, weigh, graduated cylinder)
- Format: physicochemical
- test.conditions: cooling rate 15, crystallization end temperature 8; water content 10%, pH 3.5
property: Bulk density (g/mL)

{"columns": ["compound", "reported.measurement"],
 "data": [
  ["NC(=O)c1ccc[n+]([C@@H]2O[C@H](COP(=O)([O-])O)[C@@H](O)[C@H]2O)c1 [Example 2, nicotinamide mononucleotide]", 0.84]
]}

* * *

- assay.protocol: loose bulk density measurement of nicotinamide mononucleotide crystals (sieve, weigh, graduated cylinder)
- Type: physicochemical
- test.conditions: cooling rate 5, crystallization end temperature 10; water content 10%, pH 3.5

{"columns": ["compound", "Bulk density [g/mL]"],
 "data": [
  ["NC(=O)c1ccc[n+]([C@@H]2O[C@H](COP(=O)([O-])O)[C@@H](O)[C@H]2O)c1 [Example 2, nicotinamide mononucleotide]", 0.92]
]}

* * *

- assay.protocol: loose bulk density measurement of nicotinamide mononucleotide crystals (sieve, weigh, graduated cylinder)
- Type: physicochemical
- test.conditions: pH value of aqueous solution of NMN 5.0; water content 10%, cooling 10° C./h to 10° C.
property: Bulk density (g/mL)

{"columns": ["compound", "property", "reported.measurement"],
 "data": [
  ["NC(=O)c1ccc[n+]([C@@H]2O[C@H](COP(=O)([O-])O)[C@@H](O)[C@H]2O)c1 [Example 3, nicotinamide mononucleotide]", "Bulk density", 1.09]
]}

* * *

- assay.protocol: loose bulk density measurement of nicotinamide mononucleotide crystals (sieve, weigh, graduated cylinder)
- Assay type: physicochemical
- test.conditions: water content of semi-solid 75%; pH 3.5, ethanol, cooling 10° C./h to 10° C.

{"columns": ["molecule", "Bulk density"],
 "data": [
  ["NC(=O)c1ccc[n+]([C@@H]2O[C@H](COP(=O)([O-])O)[C@@H](O)[C@H]2O)c1 [Example 1, nicotinamide mononucleotide]", "0.26 g/mL"]
]}
